Please respond with reported Growth Rate for every item in the list.
Tested on: U2OS
Assay: Incucyte cell viability with U2OS; also: filed as whole numbers so only -1 and 0 and 1 occur
Assay type: toxicity, cell-based
Details: human, 0 h, 10 µM, compound concentration 10 uM, replicate number 1, timepoint 0 hours
When you answer, write just the number.

Growth Rate lookup needed for COc1cc2c(cc1OCCCN1CCCC1)N=C(N)C21CCC1 , thanks.
0

And what about the compound COc1ccc(CNC(=O)c2cc(-c3cncc(Cl)c3)cnc2-c2ccccn2)nc1OC ?
0

Try the compound Cc1csc2c(N[C@@H](C)CN3CCN(S(=O)(=O)c4ccc(Cl)c(Cl)c4)CC3)ncnc12
0

What do you have for CS(=O)(=O)NC[C@H]1CC[C@H](Nc2nc3c(s2)CCSc2ccccc2-3)CC1 ?
0

Queued: Cn1cc(C2=C(c3cn(C4CCN(Cc5ccccn5)CC4)c4ccccc34)C(=O)NC2=O)c2ccccc21
0

Consider next the compound CNC(=NCCSCc1csc(N=C(N)N)n1)NC#N in the same way.
0

What do you have for N#Cc1c(O)nc(SCc2cccc(F)c2F)nc1C1CC1 ?
0

Query O=S(=O)(c1ccccc1)N(CC(F)(F)F)c1ccc(C(O)(C(F)(F)F)C(F)(F)F)cc1 next
0

Same question, CCCCN1CCC(COC(=O)c2cc(Cl)c(N)c3c2OCCO3)CC1.Cl this time
1
